Multi-source literature compilation: IC50 on Histone deacetylase 3 (Homo sapiens).
valueType: IC50 (nM)

Please review the entries below; each comes with its answer.
testSmiles | unitTag | IC50
CNC(=O)c1ccccc1Nc1nc(Nc2ccc(NC(=O)CCCCCCC(=O)NO)cc2)ncc1Cl | nM | 1050
O=C(NO)c1ccc(CN2C(=O)C3=C(CCN(Cc4cccc(Cl)c4)C3)N3CCN=C23)cc1 | nM | 1140
Nc1ccccc1NC(=O)c1ccc(CNC(=O)OCc2ccccc2)cc1 | nM | 624

[1] O=C(CCCCCCNC(=O)c1cc2cc(-c3cn[nH]c3)ccc2s1)NO
[2] NC(=O)c1cccc2[nH]c(-c3ccc(NCc4ccc(C(=O)Nc5ccccc5N)cc4)cc3)nc12
# input Param pair: 1 , 2 . Output: the one whose IC50 is numerically greater. Identify your pick by its label.
# output 2

###

Multi-source literature compilation: IC50 on Histone deacetylase 3 (Homo sapiens, UniProt O15379).
Sequence (O15379 whole entry): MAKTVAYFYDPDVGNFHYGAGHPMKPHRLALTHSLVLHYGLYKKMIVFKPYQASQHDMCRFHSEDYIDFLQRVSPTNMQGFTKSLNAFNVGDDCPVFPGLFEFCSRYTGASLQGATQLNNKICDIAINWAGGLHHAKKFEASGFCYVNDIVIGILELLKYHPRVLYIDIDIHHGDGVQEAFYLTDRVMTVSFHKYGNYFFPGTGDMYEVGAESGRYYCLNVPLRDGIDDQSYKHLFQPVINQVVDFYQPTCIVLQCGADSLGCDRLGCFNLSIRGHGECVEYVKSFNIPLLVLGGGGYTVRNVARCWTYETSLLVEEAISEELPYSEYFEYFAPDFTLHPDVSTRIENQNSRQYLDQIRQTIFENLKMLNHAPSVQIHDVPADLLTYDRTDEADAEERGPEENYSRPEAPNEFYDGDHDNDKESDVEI

testSmiles | IC50
COc1cc(OC)c(/C=C/S(=O)(=O)Cc2ccc(OC)c(NCC(=O)O)c2)c(OC)c1 | > 10 µM
CN(C)c1ccc(C(=O)N(CC(=O)NCc2ccccc2)Cc2ccc(C(=O)Nc3cc(-c4ccncc4)ccc3N)cc2)cc1 | > 6.67 µM

# input Notebook entry, Histone deacetylase 3 (Homo sapiens, UniProt O15379) assay: IC50 of `CC1(C)CC(=O)c2c(C(F)(F)F)nn(Cc3ccc(C(=O)NO)cc3)c2C1` = ?
# output > 20 µM
